targetOrTestSystem: T1, corticotropin releasing factor 2 receptor
T1 sequence (Q13324 whole entry, species assumed, looked up): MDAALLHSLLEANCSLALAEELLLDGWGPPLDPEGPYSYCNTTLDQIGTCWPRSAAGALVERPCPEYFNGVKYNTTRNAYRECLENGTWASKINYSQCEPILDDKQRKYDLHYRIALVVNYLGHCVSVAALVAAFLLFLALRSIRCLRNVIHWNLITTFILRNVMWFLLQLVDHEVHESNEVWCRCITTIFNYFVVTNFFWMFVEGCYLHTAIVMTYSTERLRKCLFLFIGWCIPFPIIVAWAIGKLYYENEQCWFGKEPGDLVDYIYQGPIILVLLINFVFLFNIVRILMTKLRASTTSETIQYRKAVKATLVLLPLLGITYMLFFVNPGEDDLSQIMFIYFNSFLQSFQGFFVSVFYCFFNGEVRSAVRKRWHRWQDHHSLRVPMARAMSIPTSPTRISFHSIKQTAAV
assayComment: cell-based or functional assay
Ends that are not written are not given here.

binder: ZGPPISIDLPTHLLRKMIEIEKQEKEKQQAANNRLLLDTI (C-terminal amide) [SEQ ID NO 74]
CRF2R EC50 [nM]: 55

binder: IVLSLDVPIGLLQILLEQTKARAAREQATTNARILARV-NH2 [SEQ ID NO 117]
CRF2R EC50 [nM]: 9.41

binder: ZGPPISIDLPDYLLRKMIEIEKQEKEKQQAANNRLLLDTI (C-terminal amide) [SEQ ID NO 54]
CRF2R EC50 [nM]: 100
